For each record, write down the corresponding pIC50.
# targetDesc: IDO in Hela cells (Homo sapiens)
# Construct: endogenous in cells
# Sequence (P14902 whole entry): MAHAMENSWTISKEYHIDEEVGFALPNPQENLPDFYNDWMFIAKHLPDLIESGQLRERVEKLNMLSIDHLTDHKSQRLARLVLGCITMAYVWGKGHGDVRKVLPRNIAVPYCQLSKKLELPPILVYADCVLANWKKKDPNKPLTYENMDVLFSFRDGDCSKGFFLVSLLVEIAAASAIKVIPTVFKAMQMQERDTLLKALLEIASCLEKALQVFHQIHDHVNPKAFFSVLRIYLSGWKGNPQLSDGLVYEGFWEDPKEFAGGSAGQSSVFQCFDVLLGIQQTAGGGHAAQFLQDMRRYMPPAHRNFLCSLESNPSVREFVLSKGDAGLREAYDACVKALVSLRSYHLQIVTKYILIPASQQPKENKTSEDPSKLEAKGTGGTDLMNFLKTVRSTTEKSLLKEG
# testSummary: Test of cellular activity (kynurenine formation in interferon γ stimulated Hela cells)
# conditionSummary: head prints IPS cells, method: Hela cells, 48 h incubation, read at 480 nm
In plain terms, pIC50 is the concentration in mol/L turned into minus its base-10 logarithm.

Req: For the compound O=C(Nc1ccc(Cl)cn1)C1CC2(CCC(c3ccnc4ccc(F)cc34)CC2)C1 (single isomer, unassigned) , report pIC50.
Resp: 8.02

Req: For the compound O=C(Nc1cccc(F)c1)C1CC2(CCC(c3ccnc4ccc(F)cc34)CC2)C1 (single isomer, unassigned) , report pIC50.
Resp: 8.71

Req: Name the recorded pIC50 of the item O=C(Nc1ccc(F)cc1)C1CC2(CCC(c3ccnc4ccc(F)cc34)CC2)C1 (racemic) [Example 19] in your answer.
Resp: 8.47

Req: Output measured pIC50 for this item: O=C(Nc1ccccc1F)C1CC2(CCC(c3ccnc4ccc(F)cc34)CC2)C1 (single isomer, unassigned)
Resp: 8.56

Req: Please give the documented pIC50 of N#Cc1ccc(NC(=O)C2CC3(CCC(c4ccnc5ccc(F)cc45)CC3)C2)cc1 (single isomer, unassigned)
Resp: 8.88

###

# targetDesc: IDO enzyme (Homo sapiens)
# testSummary: IDO enzyme inhibitory activity test
# conditionSummary: recombinant IDO, D-Trp substrate, reading at 321 nm for 40 min
Answer each item with its documented pIC50.
Notebook: values listed as pIC50 are -log10 of the concentration (mol/L).

Req: Supply measured pIC50 of O=C(Nc1ccc(Cl)cc1)NC1CC2(CCC(c3ccnc4ccc(F)cc34)CC2)C1 (racemic) [Example 16] in your reply.
Resp: 5.49

Req: Identify measured pIC50 associated with O=C(Nc1ccc(F)cc1)C1CC2(CCC(c3ccnc4ccc(F)cc34)CC2)C1 (racemic) [Example 19]
Resp: 6.40

Req: Find the measured pIC50 of O=C(NC1CCC12CCC(c1ccnc3ccc(F)cc13)CC2)c1ccc(Cl)cc1 (racemic) [Example 12B] and report it.
Resp: 5.93

Req: Give a short answer stating reported pIC50 for O=C(NC1CC12CCC(c1ccnc3ccc(F)cc13)CC2)c1ccc(Cl)cc1 (racemic) [Example 8] .
Resp: 6.00

Req: # return recorded pIC50 for entry O=C(Nc1ccc(Cl)cc1)C1CC2(C1)CC(c1ccnc3ccccc13)C2 (racemic) [Example 1]
Resp: 5.96

Req: Fill in pIC50 for record O=C(Nc1ccc(Cl)cc1)C1CC2(C1)CC(c1ccnc3ccc(F)cc13)C2 (racemic) [Example 3]
Resp: 6.20

Req: Recall and state the measured pIC50 for O=C(Nc1ccc(Cl)cc1)C1CCC12CCC(c1ccnc3ccc(F)cc13)CC2 (single isomer, unassigned) [Example 10A] .
Resp: 6.28

###

# targetDesc: IDO enzyme (Homo sapiens, UniProt P14902)
# Construct: made in house; host or cells: E. coli BL21 (pET28a-IDO plasmid)
# Sequence (P14902 whole entry): as above
# testSummary: IDO enzyme inhibitory activity test
# Assay type: biochemical
# conditionSummary: recombinant IDO, D-Trp substrate, reading at 321 nm for 40 min
observedProperty: IC50
State the value with its unit after it.

Req: Kindly indicate its recorded IC50. Item: O=C(Nc1ccc(Cl)cc1)C1CC2(CCC(c3ccnc4ccc(F)cc34)CC2)C1 (single isomer, unassigned) [Example 15B]
Resp: 0.4 µM

Req: In one line, give reported IC50 of the entry O=C(Nc1ccc(Cl)cc1)C1CC12CCC(c1ccnc3ccccc13)CC2 (racemic) [Example 2A] .
Resp: 1.3 µM

Req: // Input: O=C(Nc1ccc(Cl)cc1)NC1CCC12CCC(c1ccnc3ccc(F)cc13)CC2 (racemic) [Example 11B] . Output its IC50 only.
Resp: 2.7 µM

Req: Return IC50 (reported value) for this molecule: O=C(Nc1ccc(Cl)cc1)NC1CC12CCC(c1ccnc3ccc(F)cc13)CC2 (racemic)
Resp: 3 µM

Req: Indicate the recorded IC50 value for this molecule: O=C(NC1CCC12CCC(c1ccnc3ccc(F)cc13)CC2)c1ccc(Cl)cc1 (racemic) [Example 12A]
Resp: 1.2 µM

Req: Output measured IC50 for this item: O=S(=O)(NC1CCC12CCC(c1ccnc3ccc(F)cc13)CC2)c1ccc(Cl)cc1 (single isomer, unassigned) [Example 13A]
Resp: 20 µM

Req: Using known records, supply IC50 for O=S(=O)(NC1CCC12CCC(c1ccnc3ccc(F)cc13)CC2)c1ccc(Cl)cc1 (single isomer, unassigned) [Example 13B]
Resp: 157 µM

All figures here come from patent US20210047290A1.
